Hello, the source for this data is paper PMC2946844, in case you need it.

Target: T1, 1xMBD-GFP (UniProt Q9Z2E2 1-75)
T1 sequence: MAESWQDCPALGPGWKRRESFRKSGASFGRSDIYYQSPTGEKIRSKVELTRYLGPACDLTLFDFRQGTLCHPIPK
Assay: SPR
Metric: pKd
Lab note: report pKd as minus log10 of the concentration in molar units, number only.

{"Binder": "m_o_o/m_o_o (dsDNA, strand 1 5mC5; strand 2 5mC17) DNA 1: TTTGCGGTCCGCTGCCCGACCC DNA 2: GGGTCGGGCAGCGGACCGCAAA", "Metric": "pKd", "Value observed": 5.38}
{"Binder": "m_o_o_o/m_m_o_o (dsDNA, strand 1 5mC14; strand 2 5mC17,5mC21) DNA 1: GAAGTCAACAGGACGGACGCCGCGCAA DNA 2: CTCTTTCTTTGCGCGGCGTCCGTCCTGTTGACTTCCTCT", "Metric": "pKd", "Value observed": 6.25}
{"Binder": "m_o_o_o/o_o_o_o (dsDNA, strand 1 5mC14) DNA 1: GAAGTCAACAGGACGGACGCCGCGCAA DNA 2: CTCTTTCTTTGCGCGGCGTCCGTCCTGTTGACTTCCTCT", "Metric": "pKd", "Value observed": 4.77}

Look up and report measured pKd for this entry: m_o_o*/o_m_o (dsDNA, strand 1 5mC9; strand 2 5mC12) DNA 1: GTAGTTTGCGGTCCGCTGCCCGACC DNA 2: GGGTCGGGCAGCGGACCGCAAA
5.27

Look up and report measured pKd for this entry: o_m_o/o_m_m (dsDNA, strand 1 5mC10; strand 2 5mC5,5mC12) DNA 1: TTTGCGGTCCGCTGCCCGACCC DNA 2: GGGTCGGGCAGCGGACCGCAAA
6.60

Look up and report measured pKd for this entry: o_o_o_o/o_o_m_m (dsDNA, strand 2 5mC12,5mC14) DNA 1: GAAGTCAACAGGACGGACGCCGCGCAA DNA 2: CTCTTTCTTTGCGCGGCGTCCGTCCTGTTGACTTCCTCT
5.35

Look up and report measured pKd for this entry: m_o_o_o/o_o_m_m (dsDNA, strand 1 5mC14; strand 2 5mC12,5mC14) DNA 1: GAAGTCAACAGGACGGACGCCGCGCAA DNA 2: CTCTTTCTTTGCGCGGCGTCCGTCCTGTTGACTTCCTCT
5.51

Look up and report measured pKd for this entry: m_o_o/m_o_m (dsDNA, strand 1 5mC5; strand 2 5mC5,5mC17) DNA 1: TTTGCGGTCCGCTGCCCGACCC DNA 2: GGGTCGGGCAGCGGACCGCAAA
5.68

Look up and report measured pKd for this entry: o_o_o/o_m_o (dsDNA, strand 2 5mC12) DNA 1: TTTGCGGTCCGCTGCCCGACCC DNA 2: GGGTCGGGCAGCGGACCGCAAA
4.92

Look up and report measured pKd for this entry: o_o_o/m_o_o (dsDNA, strand 2 5mC17) DNA 1: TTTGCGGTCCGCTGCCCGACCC DNA 2: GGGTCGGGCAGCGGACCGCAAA
4.32

Look up and report measured pKd for this entry: o_o_m_o/o_o_m_o (dsDNA, strand 1 5mC21; strand 2 5mC14) DNA 1: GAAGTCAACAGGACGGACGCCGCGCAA DNA 2: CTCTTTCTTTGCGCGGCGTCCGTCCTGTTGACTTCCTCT
6.97

Look up and report measured pKd for this entry: o_m_o_o/o_m_m_o (dsDNA, strand 1 5mC18; strand 2 5mC14,5mC17) DNA 1: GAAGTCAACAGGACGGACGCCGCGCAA DNA 2: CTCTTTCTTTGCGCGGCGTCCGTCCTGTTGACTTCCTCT
6.50

Look up and report measured pKd for this entry: o_o_m/o_o_o (dsDNA, strand 1 5mC17) DNA 1: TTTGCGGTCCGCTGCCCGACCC DNA 2: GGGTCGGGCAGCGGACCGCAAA
5.17

Look up and report measured pKd for this entry: m_o_o_o/o_m_m_o (dsDNA, strand 1 5mC14; strand 2 5mC14,5mC17) DNA 1: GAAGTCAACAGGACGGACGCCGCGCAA DNA 2: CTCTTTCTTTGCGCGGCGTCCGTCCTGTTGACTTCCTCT
5.62

Look up and report measured pKd for this entry: o_m_o_o/m_m_o_o (dsDNA, strand 1 5mC18; strand 2 5mC17,5mC21) DNA 1: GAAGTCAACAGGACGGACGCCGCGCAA DNA 2: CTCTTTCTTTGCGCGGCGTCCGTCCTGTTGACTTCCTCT
6.42

Look up and report measured pKd for this entry: m_o_o/o_m_m (dsDNA, strand 1 5mC5; strand 2 5mC5,5mC12) DNA 1: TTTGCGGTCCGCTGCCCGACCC DNA 2: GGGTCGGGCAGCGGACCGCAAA
5.44

Look up and report measured pKd for this entry: o_o_o_m/o_m_m_o (dsDNA, strand 1 5mC23; strand 2 5mC14,5mC17) DNA 1: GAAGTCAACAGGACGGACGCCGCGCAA DNA 2: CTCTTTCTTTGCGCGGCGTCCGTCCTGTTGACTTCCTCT
5.71
